Form: system (UniProt P07858), quantity (IC50), values below.
Supply the numeric figure in µM, leaving out any unit text.

>>> df
                                chem_smiles  attribute_measured  output_unit  result
0  C[C@H](NC(=O)[C@@H]1CCCN2C(=O)CC[C@H](NC(=O)c3ccco3)C(=O)N12)C(=O)COC(=O)c1c(Cl)cccc1Cl                IC50           µM       5

// below: IC50 requested for another molecule
Report IC50, nothing else, for this molecule: "C[C@H](NC(=O)[C@@H]1CCCN2C(=O)CC[C@H](NS(=O)(=O)c3ccc(C(F)(F)F)cc3)C(=O)N12)C(=O)COC(=O)c1c(Cl)cccc1Cl"
6

====

- ASSAYED TARGET: Cathepsin B (Homo sapiens)
- Construct: purchased Calbiochem
- TEST DESCRIPTION: Study of Cathepsin B inhibition (fluorescence, Z-arg-arg-AMC)
- Type: biochemical
- SETUP CONDITIONS: substrate Z-arg-arg-AMC 20 μM, enzyme 16 ng/ml, 1 hour at ambient temperature
Catalogue of pIC50 readings, one per entry.
Would you please state pIC50, meaning minus log10 of the concentration in mol/L, as a bare number?

Past entries and their recorded results:
>>> print(df.to_string())
                                chem_smiles  result
0  C=CCOC(=O)CC[C@H](NC(=O)[C@@H]1CCCN2C(=O)CCC[C@H](NC(=O)NC3CCCCC3)C(=O)N12)C(=O)COC(=O)c1c(Cl)cccc1Cl    6.15
1  C=CCOC(=O)CC[C@H](NC(=O)[C@@H]1CCCN2C(=O)CC[C@H](NC(=O)Nc3ccc(Oc4ccccc4)cc3)C(=O)N12)C(=O)C=[N+]=[N-]    4.82
2  [N-]=[N+]=CC(=O)[C@H](Cc1ccccc1)NC(=O)[C@@H]1CCCN2C(=O)CC[C@H](NC(=O)Nc3ccc(Oc4ccccc4)cc3)C(=O)N12    5.05

// Input: "CC(C)[C@H](NC(=O)[C@@H]1CCCN2C(=O)CC[C@H](NC(=O)Nc3ccc(Oc4ccccc4)cc3)C(=O)N12)C(=O)CSc1nc2ccccc2s1" . Output its pIC50 only.
4.72

Report pIC50 for "O=C(NCCc1cccs1)N[C@H]1CCC(=O)N2CCC[C@@H](C(=O)N[C@@H](Cc3ccccc3)C(=O)COC(=O)c3c(Cl)cccc3Cl)N2C1=O"
5.05

Using known records, supply pIC50 for "CC(C)C[C@H](NC(=O)[C@@H]1CCCN2C(=O)CC[C@H](NS(=O)(=O)c3ccc(C(F)(F)F)cc3)C(=O)N12)C(=O)COC(=O)c1c(Cl)cccc1Cl"
5.30

Please report pIC50 for the following compound: "C[C@H](NC(=O)[C@@H]1CCCN2C(=O)CC[C@H](NC(=O)NCCc3cccs3)C(=O)N12)C(=O)COC(=O)c1c(Cl)cccc1Cl"
5.82

Indicate the recorded pIC50 value for this compound: "C[C@H](NC(=O)[C@@H]1CCCN2C(=O)CC[C@H](NC(=O)NC3CCCCC3)C(=O)N12)C(=O)COC(=O)c1c(Cl)cccc1Cl"
5.40

Provide one value: measured pIC50 of "O=C(N[C@H]1CCC(=O)N2CCC[C@@H](C(=O)N[C@@H](Cc3ccccc3)C(=O)COC(=O)c3c(Cl)cccc3Cl)N2C1=O)c1ccco1"
4.74

Return reported pIC50. Input compound: "COc1cccc(C(=O)N[C@H]2CCC(=O)N3CCC[C@@H](C(=O)N[C@@H](C)C(=O)COC(=O)c4c(Cl)cccc4Cl)N3C2=O)c1"
5.82

Tell me measured pIC50 for "C=CCOC(=O)CC[C@H](NC(=O)[C@@H]1CCCN2C(=O)CC[C@H](NC(=O)Nc3ccc(Oc4ccccc4)cc3)C(=O)N12)C(=O)COC(=O)c1c(Cl)cccc1Cl" please.
5.70
